assay: A CellTox Green Cytotoxicity Assay to monitor cytotoxicity in HepG2 cells - 16 hour (AID 1224876); settings: CellTox Green fluorescence; series mostly up to 76.8 µM; further: nearly all actives have a fitted effect of over 45% in size
Results filed as inconclusive are left out. Activity calls are given as the source filed them. The call rests on the fitted dose curve; in most records, active means well fitted activation curve with a large enough effect in the repeat runs; inconclusive means weak or mixed curves; inactive means flat fitted curve, though single readings scatter.
OBSERVED_PROPERTY: outcome

Examples with their reported outcome follow.
CC(=O)O[C@]1(C(C)=O)CC[C@H]2[C@@H]3C=C(C)C4=CC(=O)CC[C@]4(C)[C@H]3CC[C@@]21C    inactive
C=C1C[C@H]2[C@@H]3C=C(C)C4=CC(=O)CC[C@]4(C)[C@H]3CC[C@]2(C)[C@@]1(OC(C)=O)C(C)=O    inactive
c1ccc2c(c1)ccc1cc3c(ccc4ccccc43)cc12    inactive
Cc1ccc(C(C)(C)C)cc1    inactive
O=C(O)c1cc(=O)[nH]c(=O)[nH]1    inactive
O=S1(=O)CCCO1    inactive
COC(=O)C(C)Oc1ccc(Oc2ncc(C(F)(F)F)cc2Cl)cc1 (configuration not stated)    inactive
CCCCCCC(C)O (configuration not stated)    inactive

Here are 2 molecules. What values of outcome were reported for them?
1. C=C[C@H]1CN2CC[C@H]1C[C@H]2[C@H](O)c1ccnc2ccc(OC)cc12
2. C=C[C@@]1(C)CC(=O)[C@]2(O)[C@@]3(C)[C@@H](O)CCC(C)(C)[C@@H]3[C@H](O)[C@H](OC(C)=O)[C@@]2(C)O1

Output:
inactive
inactive

Please give outcome for each item listed below.
1. CCC/C=C/C=O
2. [O-]/[N+](=N\O)c1ccccc1

Output:
1: inactive; 2: inactive
